# SYSTEM: Cytochrome P450 11B2, mitochondrial (Homo sapiens)
# Sequence (P19099 whole entry): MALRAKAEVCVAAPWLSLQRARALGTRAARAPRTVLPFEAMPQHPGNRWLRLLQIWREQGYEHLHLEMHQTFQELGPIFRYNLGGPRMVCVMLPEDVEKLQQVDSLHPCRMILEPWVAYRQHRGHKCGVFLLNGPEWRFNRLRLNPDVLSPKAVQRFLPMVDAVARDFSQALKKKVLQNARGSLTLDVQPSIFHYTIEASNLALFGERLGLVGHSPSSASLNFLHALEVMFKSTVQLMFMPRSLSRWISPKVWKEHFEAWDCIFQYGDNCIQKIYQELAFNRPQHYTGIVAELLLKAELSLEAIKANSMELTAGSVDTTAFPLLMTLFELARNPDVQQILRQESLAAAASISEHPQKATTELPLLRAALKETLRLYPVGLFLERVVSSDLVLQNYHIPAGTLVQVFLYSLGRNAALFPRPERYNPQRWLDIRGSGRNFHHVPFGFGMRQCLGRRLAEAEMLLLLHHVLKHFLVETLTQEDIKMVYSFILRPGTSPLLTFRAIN
# ASSAY OVERVIEW: Inhibition of human CYP11B2 expressed in V79 MZh cells using [14C]-deoxycorticosterone substrate incubated for 6 hrs by HPTLC method
ENDPOINT LABEL: IC50 (nM)
One number for each entry, in nM.

# COMPOUND, IC50 (nM)
records = [
    ("Cc1nnc2n1-c1c(F)cc(-c3cncc(F)c3)cc1CC2", 89.7),
    ("O=C(c1ccccc1)c1nnc2n1-c1c(F)cc(-c3cccnc3)cc1CC2", 708),
]

Query for Cytochrome P450 11B2, mitochondrial (Homo sapiens): what IC50 does the record show for CCc1nnc2n1-c1c(F)cc(-c3cccnc3)cc1CC2 ? 542
